# Tested on: Interleukin-23 receptor (Homo sapiens, UniProt Q5VWK5)
# Sequence (Q5VWK5 whole entry): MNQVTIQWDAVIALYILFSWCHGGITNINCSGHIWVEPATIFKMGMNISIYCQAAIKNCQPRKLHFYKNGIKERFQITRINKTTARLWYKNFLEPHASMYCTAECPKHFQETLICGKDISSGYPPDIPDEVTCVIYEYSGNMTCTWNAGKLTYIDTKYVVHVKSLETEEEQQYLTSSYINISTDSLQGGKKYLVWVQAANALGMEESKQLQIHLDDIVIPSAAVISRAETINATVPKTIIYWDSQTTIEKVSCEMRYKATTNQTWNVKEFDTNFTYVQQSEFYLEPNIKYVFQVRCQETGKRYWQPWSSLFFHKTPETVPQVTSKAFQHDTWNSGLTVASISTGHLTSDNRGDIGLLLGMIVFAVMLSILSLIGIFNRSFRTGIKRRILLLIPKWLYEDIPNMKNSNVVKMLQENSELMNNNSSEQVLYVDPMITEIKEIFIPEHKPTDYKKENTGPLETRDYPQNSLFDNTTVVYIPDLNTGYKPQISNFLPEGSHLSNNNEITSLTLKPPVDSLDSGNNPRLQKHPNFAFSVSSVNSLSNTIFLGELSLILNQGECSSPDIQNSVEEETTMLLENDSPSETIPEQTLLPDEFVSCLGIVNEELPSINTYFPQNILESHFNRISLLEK
# Assay remarks: Inhibition of interleukin-23 receptor in human DB cells assessed as reduction in IL-23-stimulated STAT3 phosphorylation incubated for 30 mins by HTRF assay
# Type: cell-based
pIC50: −log10 of the molar value. *1 amine or outer side, *2 acyl side, *3 side chain or, on linkers, in order; H or OH if unused. Where a SMILES comes first, the peptide text is derived from it. Bridges are numbered along the chain shown (N, C = ends). [ ]: non-standard residue; d: D form. Abu(4-yl) = O=C([C@H](CC[*:3])N[*:1])[*:2]; 2Nal = N[C@@H](Cc1ccc2ccccc2c1)C(=O)O; AEF = NCCOc1ccc(C[C@H](N)C(=O)O)cc1; αMeK = C[C@](N)(CCCCN)C(=O)O; Aib = CC(C)(N)C(=O)O
Reported property: pIC50

Noted for COc1ccc(C[C@H](NC(=O)[C@@H](NC(=O)[C@H](CCC(N)=O)NC(=O)[C@H](Cc2c[nH]c3ccccc23)NC(=O)[C@@H](NC(=O)[C@H](CCC(N)=O)NC(=O)[C@@H](NC(C)=O)C(C)(C)S)[C@@H](C)O)C(C)(C)S)C(=O)N[C@@H](Cc2ccc3ccccc3c2)C(=O)N[C@@](C)(CCCCN)C(=O)N[C@@H](CCC(=O)O)C(=O)N[C@@H](CC(N)=O)C(=O)NCC(N)=O)cc1 : its pIC50 reads 7.60 to 8.00

Noted for COc1ccc(C[C@H](NC(=O)[C@@H](NC(=O)[C@H](CCC(N)=O)NC(=O)[C@H](Cc2c[nH]c3ccccc23)NC(=O)[C@@H](NC(=O)[C@H](CCC(N)=O)NC(=O)[C@@H](NCN2C(=O)COCC2=O)C(C)(C)S)[C@@H](C)O)C(C)(C)S)C(=O)N[C@@H](Cc2ccc3ccccc3c2)C(=O)N[C@@](C)(CCCCN)C(=O)N[C@@H](CCCCNC(C)=O)C(=O)N[C@@H](CC(N)=O)C(=O)NCC(N)=O)cc1 : its pIC50 reads 7.60 to 8.00

Noted for CC(=O)NCCCC[C@](C)(NC(=O)[C@H](Cc1ccc2ccccc2c1)NC(=O)[C@H](Cc1ccc(OCCNC(C)=O)cc1)NC(=O)[C@@H]1CSCC[C@H](NC(C)=O)C(=O)N[C@@H](CCC(N)=O)C(=O)N[C@@H]([C@@H](C)O)C(=O)N[C@@H](Cc2c[nH]c3ccccc23)C(=O)N[C@@H](CCC(N)=O)C(=O)N1)C(=O)N[C@@H](CCC(=O)O)C(=O)N[C@@H](CC(N)=O)C(=O)N[C@@H](CCC(N)=O)C(N)=O (Ac-[Abu(4-yl)]QTWQC[AEF](Ac)[2Nal][αMeK](Ac)ENQ-NH2; thioether 1-6) : its pIC50 reads > 8.00

Noted for COc1ccc(C[C@H](NC(=O)[C@@H]2CSCC[C@H](NC(=O)[C@@H](CCCCN)NC(C)=O)C(=O)N[C@@H](CCC(N)=O)C(=O)N[C@@H]([C@@H](C)O)C(=O)N[C@@H](Cc3c[nH]c4ccccc34)C(=O)N[C@@H](CCC(N)=O)C(=O)N2)C(=O)N[C@@H](Cc2ccc3ccccc3c2)C(=O)N[C@@](C)(CC(C)C)C(=O)N[C@@H](CCC(=O)O)C(=O)N[C@@H](CC(N)=O)C(=O)NCC(N)=O)cc1 : its pIC50 reads > 8.00

Noted for CC(=O)N[C@H]1CCSC[C@@H](C(=O)N[C@@H](Cc2ccc(OCCN)cc2)C(=O)N[C@@H](Cc2ccc3ccccc3c2)C(=O)NC(C)(C)C(=O)N[C@@H](CCC(N)=O)C(=O)N[C@@H](CC(N)=O)C(=O)NCC(N)=O)NC(=O)[C@H](CCC(N)=O)NC(=O)[C@H](Cc2c[nH]c3ccccc23)NC(=O)[C@H]([C@@H](C)O)NC(=O)[C@H](CCC(N)=O)NC1=O (Ac-[Abu(4-yl)]QTWQC[AEF][2Nal][Aib]QNG-NH2; thioether 1-6) : its pIC50 reads > 8.00

Noted for CC(=O)NCCCC[C@H](NC(=O)C(C)(C)NC(=O)[C@H](Cc1cccc2ccccc12)NC(=O)[C@H](Cc1ccc(OCCN)cc1)NC(=O)[C@@H]1CSCC[C@H](NC(C)=O)C(=O)N[C@@H](CCC(N)=O)C(=O)N[C@@H]([C@@H](C)O)C(=O)N[C@@H](Cc2c[nH]c3ccccc23)C(=O)N[C@@H](CCC(N)=O)C(=O)N1)C(=O)N[C@@H](CC(N)=O)C(=O)NCC(N)=O : its pIC50 reads 7.60 to 8.00

Noted for CC(=O)NCCCC[C@](C)(NC(=O)[C@H](Cc1ccc2ccccc2c1)NC(=O)[C@H](Cc1ccc(OCCNC(C)=O)cc1)NC(=O)[C@@H](NC(=O)[C@H](CCC(N)=O)NC(=O)[C@H](Cc1c[nH]c2ccccc12)NC(=O)[C@@H](NC(=O)[C@H](CCC(N)=O)NC(=O)[C@@H](NC(C)=O)C(C)(C)S)[C@@H](C)O)C(C)(C)S)C(=O)N[C@@H](CCC(=O)O)C(=O)N[C@@H](CC(N)=O)C(=O)N[C@@H](C)C(N)=O : its pIC50 reads > 8.00

Noted for CC(=O)N[C@H]1CCSC[C@@H](C(=O)N[C@@H](Cc2ccc(OCCN)cc2)C(=O)N[C@@H](Cc2ccc3ccccc3c2)C(=O)N[C@@](C)(CCCCN)C(=O)N[C@@H](CCC(=O)O)C(=O)N[C@@H](CC(N)=O)C(=O)NCC(N)=O)NC(=O)[C@H](CCC(N)=O)NC(=O)[C@H](Cc2c[nH]c3ccccc23)NC(=O)[C@H]([C@@H](C)O)NC(=O)[C@H]([C@@H](C)O)NC1=O : its pIC50 reads > 8.00

Noted for CC(=O)N[C@H]1CCSC[C@@H](C(=O)N[C@@H](Cc2ccc(OCCN)cc2)C(=O)N[C@@H](Cc2ccc3ccccc3c2)C(=O)N[C@@](C)(CCCCN)C(=O)N[C@@H](CC(N)=O)C(=O)N[C@@H](CC(N)=O)C(=O)NCC(N)=O)NC(=O)[C@H](CCC(N)=O)NC(=O)[C@H](Cc2c[nH]c3ccccc23)NC(=O)[C@H]([C@@H](C)O)NC(=O)[C@H](CCC(N)=O)NC1=O (Ac-[Abu(4-yl)]QTWQC[AEF][2Nal][αMeK]NNG-NH2; thioether 1-6) : its pIC50 reads > 8.00

Noted for COc1ccc(C[C@H](NC(=O)[C@@H]2CSCC[C@H](NC(C)=O)C(=O)N[C@@H](CCC(N)=O)C(=O)N[C@@H]([C@@H](C)O)C(=O)N[C@@H](Cc3c[nH]c4ccccc34)C(=O)N[C@@H](CCC(N)=O)C(=O)N2)C(=O)N[C@@H](Cc2ccc3ccccc3c2)C(=O)N[C@H](CC(N)=O)C(=O)N[C@@H](CCCCNC(C)=O)C(=O)N[C@@H](CC(N)=O)C(=O)NCC(N)=O)cc1 : its pIC50 reads 7.00 to 7.60
